target: STAT6 (Homo sapiens, UniProt P42226); construct: These cells express endogenous STAT6; host or cells: HeLa LgBiT clone 4.14; assay: Stat6 Degrader Assay (HiBiT based, HeLa LgBiT clone 4.14); format: cell-based; settings: HeLa LgBiT clone 4.14 HiBiT-STAT6, 4-24 h incubation; values given for compounds with >80% Emax; geometric mean; read-out: STAT6 degradation DC50
Sequence (P42226 whole entry): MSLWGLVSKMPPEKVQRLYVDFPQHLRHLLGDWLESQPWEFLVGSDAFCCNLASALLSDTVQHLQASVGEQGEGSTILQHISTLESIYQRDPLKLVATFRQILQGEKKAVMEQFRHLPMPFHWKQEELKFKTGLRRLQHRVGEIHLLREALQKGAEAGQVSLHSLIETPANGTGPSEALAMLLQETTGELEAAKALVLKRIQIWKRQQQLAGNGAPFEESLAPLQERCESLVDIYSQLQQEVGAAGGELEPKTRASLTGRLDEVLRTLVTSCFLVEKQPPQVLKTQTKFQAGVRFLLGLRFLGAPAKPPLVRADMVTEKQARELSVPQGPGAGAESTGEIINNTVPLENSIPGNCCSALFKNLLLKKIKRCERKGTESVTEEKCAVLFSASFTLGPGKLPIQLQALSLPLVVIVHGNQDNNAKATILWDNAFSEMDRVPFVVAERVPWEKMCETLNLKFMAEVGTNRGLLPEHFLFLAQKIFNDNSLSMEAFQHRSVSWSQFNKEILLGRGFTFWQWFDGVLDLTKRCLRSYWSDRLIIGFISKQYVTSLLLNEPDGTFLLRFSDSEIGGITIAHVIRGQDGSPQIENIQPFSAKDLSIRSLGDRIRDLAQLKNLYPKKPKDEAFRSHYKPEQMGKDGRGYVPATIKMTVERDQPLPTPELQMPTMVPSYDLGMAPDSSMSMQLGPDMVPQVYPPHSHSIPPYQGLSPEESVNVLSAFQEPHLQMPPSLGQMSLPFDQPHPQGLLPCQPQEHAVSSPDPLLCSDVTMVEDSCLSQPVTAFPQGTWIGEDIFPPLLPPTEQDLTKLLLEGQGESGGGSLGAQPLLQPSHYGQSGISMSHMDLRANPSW
measuredQuantity: DC50 (nM)

CNc1cc(=O)n(-c2ccnc3c2cc([C@H](C)N2CC=C(c4c(C)cc(C(=O)N(C)c5ccc(C6CCN(Cc7ccc8c(c7)C(C)(C)C(=O)N8[C@@H]7CCC(=O)NC7=O)CC6)cc5)cc4F)CC2)n3C)cc1F (single isomer, unassigned) [Example 3u235]	0.1

[A] CNc1ccn(-c2ccnc3c2cc([C@H](C)N2CC=C(c4c(F)cc(C(=O)N5CCC(CN6CCN(Cc7ccc8c(c7)C(C)(C)C(=O)N8C7CCC(=O)NC7=O)C[C@@H]6C)CC5)cc4F)CC2)n3C)c(=O)c1 (stereo partly shown) [Example 3u201]
[B] Cc1cc(C(=O)N2CCC(CN3CCN(Cc4ccc5c(c4)n(C)c(=O)n5C4CCC(=O)NC4=O)CC3)CC2)cc(F)c1C1=CCN([C@@H](C)c2cc3c(-n4ccc5c(c4=O)CCN5)ccnc3n2C)CC1 (stereo partly shown) [Example 3u22]
[C] CNc1cc(=O)n(-c2ccnc3c2cc(CN2CCC(c4c(F)cc(C(=O)N(C)c5ccc(C6CCN(Cc7ccc8c(c7)n(C)c(=O)n8C7CCC(=O)NC7=O)CC6)cc5)cc4F)CC2)n3C)cc1F (stereo not shown) [Example 3u245]
Q. Rank the 3 compounds: largest DC50 first, smallest last. To answer, write out the labels according to the requested order.
A. A, B, C
